The entries below come with measured Bliss excess values attached.
System: OVKATE (Ovarian Carcinoma)
procedure summary: Bliss excess, mean over the matrix (fraction); higher = more synergy
Output spec: single numeric token, no unit.

CC(=O)c1c(C)c2cnc(Nc3ccc(N4CCNCC4)cn3)nc2n(C2CCCC2)c1=O [Palbociclib] + Cc1c2c(nn1C)CSCc1cc(n(C)n1)CSc1cc(c3ccccc3c1)OCCCc1c(C(=O)O)n(C)c3c-2c(Cl)ccc13 [AZD5991] (first compound max 10 µM, 7x7, partner max 1 µM)	-0.0382

Now look at this one.
Query: Could you share which Bliss excess value was measured for Cc1c2c(nn1C)CSCc1cc(n(C)n1)CSc1cc(c3ccccc3c1)OCCCc1c(C(=O)O)n(C)c3c-2c(Cl)ccc13 [AZD5991] + CN(C)CCCOc1ccc(-c2ccc3ncc4c(c3c2)n(C2CCOCC2)c(=O)n4C)cn1 [AZD0156] (first compound max 1 µM, 7x7, partner max 1 µM) ?
Response: -0.0708

* * *

Tested on: NCI-H2009 (Lung Adenocarcinoma)
procedure summary: combination Emax (second highest fraction inhibited in the dose matrix, 72 h); higher = more inhibition; extreme values may be limits of the assay
readout: combination Emax
Output spec: single numeric token, no unit.

COc1nnc2ccc(N3CCC(c4ccc(OCCN5CCN(C)C(=O)[C@H]5C)cc4)CC3)nn12 [AZD5153] + C=CCn1c(=O)c2cnc(Nc3ccc(N4CCN(C)CC4)cc3)nc2n1-c1cccc(C(C)(C)O)n1 [AZD1775] (first compound max 1 µM, partner max 1 µM)	0.703
COc1cccc(OCCCN)c1-c1cc(Nc2cnc(C#N)cn2)n[nH]1 [Prexasertib] + O=C(c1cc(Cc2n[nH]c(=O)c3ccccc23)ccc1F)N1CCN(C(=O)C2CC2)CC1 [Olaparib] (first compound max 1 µM, 7x7, partner max 10 µM)	0.574
CC1(C)CCC(CN2CCN(c3ccc(C(=O)NS(=O)(=O)c4ccc(NCC5CCOCC5)c([N+](=O)[O-])c4)c(Oc4cnc5[nH]ccc5c4)c3)CC2)=C(c2ccc(Cl)cc2)C1 [Venetoclax] + C[C@@H](Nc1cc(F)cc(F)c1)c1cc(C(=O)N(C)C)cc2c(=O)cc(N3CCOCC3)oc12 [AZD8186] (first compound max 1 µM, 7x7, partner max 3 µM)	0.445
COc1nnc2ccc(N3CCC(c4ccc(OCCN5CCN(C)C(=O)[C@H]5C)cc4)CC3)nn12 [AZD5153] + C[C@@H]1COCCN1C2=NC(=NC(=C2)C3(CC3)[S@](=N)(=O)C)C4=C5C=CNC5=NC=C4 [AZD6738] (first compound max 1 µM, 7x7, partner max 10 µM)	0.645
CN(C)CCCOc1ccc(-c2ccc3ncc4c(c3c2)n(C2CCOCC2)c(=O)n4C)cn1 [AZD0156] + C[C@@H]1COCCN1C2=NC(=NC(=C2)C3(CC3)[S@](=N)(=O)C)C4=C5C=CNC5=NC=C4 [AZD6738] (first compound max 1 µM, 7x7, partner max 10 µM)	0.459
CCN(CCO)CCCOc1ccc2c(Nc3cc(CC(=O)Nc4cccc(F)c4)[nH]n3)ncnc2c1 [AZD2811] + O=C(c1cc(Cc2n[nH]c(=O)c3ccccc23)ccc1F)N1CCN(C(=O)C2CC2)CC1 [Olaparib] (first compound max 1 µM, 7x7, partner max 10 µM)	0.343

Now look at this one.
Query: Could you share which combination Emax value was measured for CC1(C)CCC(CN2CCN(c3ccc(C(=O)NS(=O)(=O)c4ccc(NCC5CCOCC5)c([N+](=O)[O-])c4)c(Oc4cnc5[nH]ccc5c4)c3)CC2)=C(c2ccc(Cl)cc2)C1 [Venetoclax] + Cn1cnc2c(F)c(Nc3ccc(Br)cc3Cl)c(C(=O)NOCCO)cc21 [Selumetinib] (first compound max 1 µM, 7x7, partner max 3 µM) ?
Response: 0.184

* * *

The entries below come with measured combination Emax values attached.
System: SK-MEL-24 (Melanoma)
procedure summary: combination Emax (second highest fraction inhibited in the dose matrix, 72 h); higher = more inhibition; extreme values may be limits of the assay
Output spec: single numeric token, no unit.

// below: answered molecules
O=C(c1cc(Cc2n[nH]c(=O)c3ccccc23)ccc1F)N1CCN(C(=O)C2CC2)CC1 [Olaparib] + COc1nnc2ccc(N3CCC(c4ccc(OCCN5CCN(C)C(=O)[C@H]5C)cc4)CC3)nn12 [AZD5153] (first compound max 10 µM, 7x7, partner max 1 µM)	0.419
CC1(C)CCC(CN2CCN(c3ccc(C(=O)NS(=O)(=O)c4ccc(NCC5CCOCC5)c([N+](=O)[O-])c4)c(Oc4cnc5[nH]ccc5c4)c3)CC2)=C(c2ccc(Cl)cc2)C1 [Venetoclax] + CN(C)CCCOc1ccc(-c2ccc3ncc4c(c3c2)n(C2CCOCC2)c(=O)n4C)cn1 [AZD0156] (first compound max 1 µM, 7x7, partner max 1 µM)	0.281
Cc1cc2ncnn2cc1Nc1ncc2c(n1)n(C1CCOCC1)c(=O)n2C [AZD7648] + O=C(c1cc(Cc2n[nH]c(=O)c3ccccc23)ccc1F)N1CCN(C(=O)C2CC2)CC1 [Olaparib] (first compound max 10 µM, 7x7, partner max 10 µM)	0.211

Query: Could you share which combination Emax value was measured for C[C@@H](c1ccc2nccn2c1)n1nnc2ncc(-c3cnn(C)c3)nc21 [Savolitinib] + Cc1c2c(nn1C)CSCc1cc(n(C)n1)CSc1cc(c3ccccc3c1)OCCCc1c(C(=O)O)n(C)c3c-2c(Cl)ccc13 [AZD5991] (first compound max 1 µM, 7x7, partner max 1 µM) ?
Response: 0.225

* * *

Tested on: MG-63 (Osteosarcoma)
procedure summary: combination Emax (second highest fraction inhibited in the dose matrix, 72 h); higher = more inhibition; extreme values may be limits of the assay
Param threshold (0.5) applies to combination Emax; output yes (1) when value >= threshold, no (0) when value < threshold.

Example entries and their recorded answers appear below.
CC1(C)CCC(CN2CCN(c3ccc(C(=O)NS(=O)(=O)c4ccc(NCC5CCOCC5)c([N+](=O)[O-])c4)c(Oc4cnc5[nH]ccc5c4)c3)CC2)=C(c2ccc(Cl)cc2)C1 [Venetoclax] + CN(C)CCCOc1ccc(-c2ccc3ncc4c(c3c2)n(C2CCOCC2)c(=O)n4C)cn1 [AZD0156] (first compound max 1 µM, 7x7, partner max 1 µM)	no (0)
Cc1cc2ncnn2cc1Nc1ncc2c(n1)n(C1CCOCC1)c(=O)n2C [AZD7648] + COc1cc([C@@H]2c3cc4c(cc3[C@@H](O[C@@H]3O[C@@H]5CO[C@@H](C)O[C@H]5[C@H](O)[C@H]3O)[C@H]3COC(=O)[C@H]23)OCO4)cc(OC)c1O [Etoposide] (first compound max 10 µM, 7x7, partner max 10 µM)	yes (1)

Query: Is combination Emax for COc1nnc2ccc(N3CCC(c4ccc(OCCN5CCN(C)C(=O)[C@H]5C)cc4)CC3)nn12 [AZD5153] + C[C@@H]1COCCN1C2=NC(=NC(=C2)C3(CC3)[S@](=N)(=O)C)C4=C5C=CNC5=NC=C4 [AZD6738] (first compound max 1 µM, 7x7, partner max 10 µM) at or above 0.5?
Response: yes (1)

* * *

Test system: L-363 (Plasma Cell Myeloma)
procedure summary: Bliss excess, mean over the matrix (fraction); higher = more synergy
readout: Bliss excess
Output spec: single numeric token, no unit.

// below: answered compounds
N#Cc1cnc(Nc2cc(NC[C@H]3CNCCO3)c(C(F)(F)F)cn2)cn1 [SRA737] + C=CCn1c(=O)c2cnc(Nc3ccc(N4CCN(C)CC4)cc3)nc2n1-c1cccc(C(C)(C)O)n1 [AZD1775] (first compound max 10 µM, partner max 1 µM)	0.121
C[C@@H](Oc1cc(-c2cnn(C3CCNCC3)c2)cnc1N)c1c(Cl)ccc(F)c1Cl [Crizotinib] + Cn1cnc2c(F)c(Nc3ccc(Br)cc3Cl)c(C(=O)NOCCO)cc21 [Selumetinib] (first compound max 10 µM, 7x7, partner max 10 µM)	0.0316

Query: Could you share which Bliss excess value was measured for CCc1c2c(nc3ccc(O)cc13)-c1cc3c(c(=O)n1C2)COC(=O)[C@]3(O)CC [SN-38] + CN(C)CCCOc1ccc(-c2ccc3ncc4c(c3c2)n(C2CCOCC2)c(=O)n4C)cn1 [AZD0156] (first compound max 0.3 µM, 7x7, partner max 1 µM) ?
Response: 0.0206

Query: Again, but for Cn1cnc2c(F)c(Nc3ccc(Br)cc3Cl)c(C(=O)NOCCO)cc21 [Selumetinib] + CCN(CCO)CCCOc1ccc2c(Nc3cc(CC(=O)Nc4cccc(F)c4)[nH]n3)ncnc2c1 [AZD2811] (first compound max 10 µM, 7x7, partner max 1 µM)
Response: -0.0194

* * *

Tested on: ATN-1 (T-Lymphoblastic Leukemia)
procedure summary: combination Emax (second highest fraction inhibited in the dose matrix, 72 h); higher = more inhibition; extreme values may be limits of the assay
readout: combination Emax
Output spec: single numeric token, no unit.

// below: answered compounds
C=CCn1c(=O)c2cnc(Nc3ccc(N4CCN(C)CC4)cc3)nc2n1-c1cccc(C(C)(C)O)n1 [AZD1775] + C1CN(CCC1(C(=O)N[C@@H](CCO)C2=CC=C(C=C2)Cl)N)C3=NC=NC4=C3C=CN4 [Capivasertib] (first compound max 3 µM, partner max 3 µM)	0.994
Cc1c2c(nn1C)CSCc1cc(n(C)n1)CSc1cc(c3ccccc3c1)OCCCc1c(C(=O)O)n(C)c3c-2c(Cl)ccc13 [AZD5991] + C1CN(CCC1(C(=O)N[C@@H](CCO)C2=CC=C(C=C2)Cl)N)C3=NC=NC4=C3C=CN4 [Capivasertib] (first compound max 1 µM, 7x7, partner max 3 µM)	0.989
Cc1cc2ncnn2cc1Nc1ncc2c(n1)n(C1CCOCC1)c(=O)n2C [AZD7648] + O=C(c1cc(Cc2n[nH]c(=O)c3ccccc23)ccc1F)N1CCN(C(=O)C2CC2)CC1 [Olaparib] (first compound max 10 µM, 7x7, partner max 10 µM)	0.356
C[C@@H](c1ccc2nccn2c1)n1nnc2ncc(-c3cnn(C)c3)nc21 [Savolitinib] + Cc1c2c(nn1C)CSCc1cc(n(C)n1)CSc1cc(c3ccccc3c1)OCCCc1c(C(=O)O)n(C)c3c-2c(Cl)ccc13 [AZD5991] (first compound max 1 µM, 7x7, partner max 1 µM)	0.904
CS(=O)(=O)CCNCc1ccc(-c2ccc3ncnc(Nc4ccc(OCc5cccc(F)c5)c(Cl)c4)c3c2)o1 [Lapatinib] + C[C@@H](Oc1cc(-c2cnn(C3CCNCC3)c2)cnc1N)c1c(Cl)ccc(F)c1Cl [Crizotinib] (first compound max 10 µM, 7x7, partner max 10 µM)	0.988

Query: Could you share which combination Emax value was measured for CN(CCO)CC[C@H](CSc1ccccc1)Nc1ccc(S(=O)(=O)NC(=O)c2ccc(N3CCC([C@@H](O)c4ccccc4-c4ccc(Cl)cc4)CC3)cc2)cc1S(=O)(=O)C(F)(F)F [AZD4320] + Cc1cc2ncnn2cc1Nc1ncc2c(n1)n(C1CCOCC1)c(=O)n2C [AZD7648] (first compound max 1 µM, 7x7, partner max 10 µM) ?
Response: 0.778

Query: Again, but for CN(CCO)CC[C@H](CSc1ccccc1)Nc1ccc(S(=O)(=O)NC(=O)c2ccc(N3CCC([C@@H](O)c4ccccc4-c4ccc(Cl)cc4)CC3)cc2)cc1S(=O)(=O)C(F)(F)F [AZD4320] + CN(C)CCCOc1ccc(-c2ccc3ncc4c(c3c2)n(C2CCOCC2)c(=O)n4C)cn1 [AZD0156] (first compound max 1 µM, 7x7, partner max 1 µM)
Response: 0.656
